tested on: U2OS; assay: cell viability relative to DMSO; higher = less toxic; conditions: 72 h; 100 nM
This listing pairs compounds with measured cell viability.
Dear colleague, please return just the value in %, with no unit written.

Some solved entries appear below for comparison.
CCO/N=C(\C(=O)N[C@@H]1C(=O)N2C(C(=O)[O-])=C(Sc3nc(-c4cc[n+](C)cc4)cs3)CS[C@H]12)c1nsc(NP(=O)(O)O)n1 = 99.5
O=C(OCC(COC(=O)c1cccnc1)(COC(=O)c1cccnc1)COC(=O)c1cccnc1)c1cccnc1 = 101
CC(C)(C)NCC(O)COc1cccc2c1CCC(=O)N2 (stereo not drawn) = 95.9

# get_value(readout= cell viability, system= U2OS) for `COC(=O)/C=C/c1cccc(N(Cc2ccc(-c3ccc(N(C)C)cc3)cc2)C(=O)C2CCCCC2)c1`
99.9

# get_value(readout= cell viability, system= U2OS) for `CC1(C)Cc2c(-c3ccccc3)c(-c3ccc(Cl)cc3)c(CC(=O)O)n2C1`
97.5

# get_value(readout= cell viability, system= U2OS) for `COc1ccc(Nc2nccc(NCCO)n2)cc1`
102

# get_value(readout= cell viability, system= U2OS) for `O=C(c1ccc(Cl)cc1)N(Cc1ccccc1)C1CCCCC1`
97.4

# get_value(readout= cell viability, system= U2OS) for `CC[C@@]1(O)C(=O)OCc2c1cc1n(c2=O)Cc2cc3ccccc3nc2-1`
86.5

// data source = the supplement of paper PMC13380429
